system: HOP-62 NSCLC; experiment: NCI-60 one-dose screen, 48 h (100 = growth as untreated, 0 = no growth, -100 = all killed); conditions: 10 µM
This is part of a sample that, as a whole, favours compounds with a hit. Of some 83,000 tested, about 20% had one in any assay.
Classification field: enter T for growth values not below 90%, F for values below it.

{"columns": ["compound", "experimentalTarget", "classification"],
 "data": [
  ["COc1nc(N)nc2c1ncn2C1OC(CO)CC1O (configuration not stated)", "HOP-62 NSCLC", "T"],
  ["O=C(O)C(Cc1ccccc1)C(=O)O", "HOP-62 NSCLC", "T"],
  ["CCc1nc(N)nc(N)c1-c1ccc(Cl)cc1", "HOP-62 NSCLC", "F"],
  ["OCc1cccc2ccccc12", "HOP-62 NSCLC", "T"],
  ["O=C1OC(=O)C2C1C1(Cl)C(Cl)=C(Cl)C2(Cl)C2C(=O)OC(=O)C21 (configuration not stated)", "HOP-62 NSCLC", "T"],
  ["O=C(CC(=O)c1ccccc1O)c1ccccc1", "HOP-62 NSCLC", "F"],
  ["CC1(C)Nc2cccc3c(N=Nc4ccc(N=Nc5ccccc5)c5ccccc45)ccc(c23)N1", "HOP-62 NSCLC", "T"]
]}
